# System: M. mycetomatis genome strain MM55
# assayProtocol: CLSI M38-A2 based in vitro susceptibility screening (XTT or resazurin), growth at fixed concentration
# Format: cell-based, Madurella mycetomatis
# assayConditions: Madurella mycetomatis, 25 uM, mean; read-out: Percentage survival at 25um, 25 uM mean
measuredProperty: activity at 25 µM
The reply must contain the numeric value and, after it, the unit.

Consider the following illustrative entries.
O=c1ccc2ncc(=O)n3c2n1CC3CN1CCC(NCc2cc3c(cn2)OCCC3)CC1 (stereo not shown) :: 66.7%
O=C1c2cccc3cccc(c23)C(=O)N1CC1CO1 (stereo not shown) :: 61%

Batch request: activity at 25 µM for each of the following compounds.
1. CCCCSc1nc(N)c2[nH]c(=O)c(=O)n(Cc3ccccc3)c2n1
2. O=C(Nc1cccc(C2=NCCN2)c1)c1ccc(-c2ccc(C(=O)Nc3cccc(C4=NCCN4)c3)cc2)cc1

Result:
74.7%
84.5%

###

# Tested on: ten different M. mycetomatis isolates
# assayProtocol: MIC / MIC50 determination (XTT) in ten M. mycetomatis isolates
# Type: cell-based, Madurella mycetomatis
# assayConditions: Madurella mycetomatis; isolate So1; read-out: MIC So1
Kindly state MIC for each of the entries shown.
Give bare numbers, in µM.

# count of solved cases: 3
CCCCC(CC)CNC(=N)NC(=N)NCCCCCCNC(=N)NC(=N)NCC(CC)CCCC (stereo not shown) [MMV396785, Alexidine, reference compound] :: 2
CCN(CC)CCn1c(=N)n(CC(O)COc2ccc(Cl)cc2Cl)c2ccccc21 (stereo not shown) :: 16
Clc1cc(Cl)c2c(c1)CCc1ccccc1C2n1ccnc1 (stereo not shown) [MMV1634492, Eberconazole, reference compound] :: 0.125

Now for a further molecule.
Task: Tell me MIC reported for "O=C(/C(=C/c1ccc(Cl)cc1Cl)n1ccnc1)c1ccc(Cl)cc1"
Result: 4

###

# System: M. mycetomatis genome strain MM55
# assayProtocol: CLSI M38-A2 based in vitro susceptibility screening (XTT or resazurin), growth at fixed concentration
# Type: cell-based, Madurella mycetomatis
# assayConditions: Madurella mycetomatis, 100 uM, mean of three replicates; read-out: Percentage survival at 100um, 100 uM mean
measuredProperty: activity at 100 µM
Please state the number and follow it with the unit.

Some solved entries appear below for comparison.
COC1CC2CCC(C)C(O)(O2)C(=O)C(=O)N2CCCCC2C(=O)OC(C(C)CC2CCC(OCCO)C(OC)C2)CC(=O)C(C)/C=C(\C)C(O)C(OC)C(=O)C(C)CC(C)/C=C/C=C/C=C/1C (centres unmarked) [MMV639951] :: 51.7%
CC(C)(C)NC(=O)[C@@H]1C[C@@H]2CCCC[C@@H]2CN1C[C@@H](O)[C@H](Cc1ccccc1)NC(=O)[C@H](CC(N)=O)NC(=O)c1ccc2ccccc2n1 [MMV637879] :: 93.3%
Nc1cnn(C2OC(CO)C(O)C2O)c(=O)n1 (centres unmarked) [MMV1580495] :: 82%

Quick batch: activity at 100 µM for everything below.
1. Clc1ccc(Cn2c(CN3CCCC3)nc3ccccc32)cc1 [MMV002015]
2. Cc1ccn2c(C(=O)NCc3ccccc3)c(C)nc2c1 [MMV1579847]
3. Cc1cc(C)n2nc(C(=O)NS(=O)(=O)c3c(C)cccc3OC(F)(F)F)nc2n1 [MMV1782402]
4. COc1ccccc1CN[C@H]1C2CCN(CC2)[C@H]1C(c1ccccc1)c1ccccc1 [MMV690480]
5. CCCCc1ccc(C(=O)O)nc1 [MMV001726]

Result:
4.96%
61.9%
91.2%
27.7%
74.3%

###

# Test system: M. mycetomatis genome strain MM55
# assayProtocol: CLSI M38-A2 based in vitro susceptibility screening (XTT or resazurin), growth at fixed concentration
# Assay type: cell-based, Madurella mycetomatis
# assayConditions: Madurella mycetomatis, 100 uM, third replicate column; read-out: Percentage survival at 100um, 100 uM A
measuredProperty: activity at 100 µM (%)
Give bare numbers, in %.

Please supply activity at 100 µM for each of the following items, keeping them in order.
1. CC(C)(C)c1ccc(Oc2ccc(N)cc2)cc1
2. CCc1cc(CCCOc2c(C)cc(-c3noc(C(F)(F)F)n3)cc2C)on1
3. O=C(O)c1cc(-c2ccccc2)nc2ccccc12
4. Cc1oncc1C(=O)Nc1ccc(C(F)(F)F)cc1
5. COc1ccc(C2CNC(=O)C2)cc1OC1CCCC1 (stereo not shown)
6. CCc1c(OCC2CCC2)c2cc(F)ccc2[nH]c1=O

Result:
1: 5.13; 2: 68; 3: 93.1; 4: 79; 5: 84; 6: 58.8

Each molecule below has a reported value. Please supply its activity at 100 µM.
1. O=C(/C=C/n1cnc(-c2cc(C(F)(F)F)cc(C(F)(F)F)c2)n1)NNc1cnccn1
2. COc1cc(C(C)(C)CCCC(C)C)cc(OC)c1OC
3. O=c1oc2ccc(Br)cc2cc1CSc1ncc[nH]1
4. [N-]=[N+]=N[C@H]1C[C@H](n2ccc(=O)[nH]c2=O)O[C@@H]1CO

Result:
95
75.5
68.5
89.4

###

# Tested on: M. mycetomatis genome strain MM55
# assayProtocol: CLSI M38-A2 based in vitro susceptibility screening (XTT or resazurin), growth at fixed concentration
# Assay type: cell-based, Madurella mycetomatis
# assayConditions: Madurella mycetomatis, 100 uM, mean of three, M. mycetomatis MM55; read-out: Percentage survival at 100um, 100 uM mean
measuredProperty: activity at 100 µM (%)
Answers are plain numbers, in %.

COc1ccc(C)cc1NC(=O)c1ccc(S(=O)(=O)N2CCCCC2)cc1 :: 71.4

State recorded activity at 100 µM for all listed compounds.
1. C(=C\c1nc2ccccc2[nH]1)/c1ccc2c(c1)OCO2
2. O=S(=O)(Nc1cccc2cccnc12)c1ccccc1
3. Cc1onc(-c2ccccc2Cl)c1C(=O)N[C@@H]1C(=O)N2[C@@H]1SC(C)(C)[C@@H]2C(=O)O
4. O=C(Nc1ccc(Cl)c(C(F)(F)F)c1)C(CCCl)C(=O)Nc1ccc(Cl)c(C(F)(F)F)c1
5. COc1ccc(NC(=O)CC2Sc3ncnn3C2=O)cc1 (stereo not drawn)
6. CCC(C)(C)c1ccc(CC(C)CN2C[C@@H](C)O[C@@H](C)C2)cc1 (stereo partly drawn) [MMV1634358, Amorolfine, reference compound]
7. O=S(=O)(Nc1ccc(-n2cccc2)cc1)c1ccc(Cl)c(Cl)c1
8. Nc1nnnn1CCOc1c2[nH]c3ccc(Cl)cc3c2cc2c1[nH]c1ccc(Cl)cc12

Result:
66.2
29.9
92.7
36.8
36
8.96
1.07
3.34

Report activity at 100 µM for every entry below.
1. CCCCCCCc1[nH]c2ccccc2c(=O)c1O
2. Clc1ccc(COC(Cn2ccnc2)c2ccc(Cl)cc2Cl)c(Cl)c1 (stereo not drawn)

Result:
72.1
8.62

Working through the 3 compounds below one at a time, give activity at 100 µM for each.
1. NCCCc1ccccc1C(=O)Nc1ncc([N+](=O)O)s1
2. Nc1nc(Nc2ccc3nc(-c4ccc(F)cc4)cc(N)c3c2)cc(-c2ccccc2)n1
3. CCCCC(CC)CNC(=N)NC(=N)NCCCCCCNC(=N)NC(=N)NCC(CC)CCCC (stereo not drawn) [MMV396785, Alexidine, reference compound]

Result:
1: 76.6; 2: 2.33; 3: 7.33

###

# Tested on: M. mycetomatis genome strain MM55
# assayProtocol: CLSI M38-A2 based in vitro susceptibility screening (XTT or resazurin), growth at fixed concentration
# Type: cell-based, Madurella mycetomatis
# assayConditions: Madurella mycetomatis, 25 uM, mean; read-out: Percentage survival at 25um, 25 uM mean
measuredProperty: activity at 25 µM (%)
One number for each entry, in %.

Example cases with answers are listed next.
O=C(Nc1[nH]c(=O)ncc1F)c1ccccc1 :: 79
CCCCCCC1c2ccc(O)cc2Oc2cc(O)ccc21 :: 72.3
CNCC(=O)OCc1cccnc1N(C)C(=O)OC(C)[n+]1cnn(C[C@](O)(c2cc(F)ccc2F)[C@@H](C)c2nc(-c3ccc(C#N)cc3)cs2)c1 (some centres unmarked) [MMV1634494, Isavuconazonium, reference compound] :: -2.78
O=C(O)c1ccccc1Sc1ncnc2sc3c(c12)CCC3 :: 83.5
OC(Cn1cncn1)(Cn1cncn1)c1ccc(F)cc1F :: 113
O=C(CP(=O)(O)O)NCCc1cccc(Oc2ccccc2)c1 :: 79.8

For every item below, please supply its activity at 25 µM.
1. COc1ccc2c(c1)cc(CNC(=O)c1cc3ccccc3o1)n2CC(=O)O
2. COc1cc(C2C3=C(CC(C)(C)CC3=O)Nc3ccccc3N2C(C)=O)ccc1OCc1ccccc1 (centres unmarked)

Result:
1. 76.7
2. 82.1

###

# Test system: M. mycetomatis genome strain MM55
# assayProtocol: CLSI M38-A2 based in vitro susceptibility screening (XTT or resazurin), growth at fixed concentration
# Type: cell-based, Madurella mycetomatis
# assayConditions: Madurella mycetomatis, 100 uM, replicate 3, M. mycetomatis MM55; read-out: Percentage survival at 100um, 100 uM A (third replicate column)
measuredProperty: activity at 100 µM (%)
Give bare numbers, in %.

Solved cases (5 shown):
CC(=O)O[C@H]1C[C@@]2(C)[C@@H](C[C@@H](O)[C@H]3[C@@]4(C)CC[C@@H](O)[C@@H](C)[C@@H]4CC[C@@]32C)/C1=C(\CCC=C(C)C)C(=O)O :: 84.8
Cc1onc(-c2ccccc2Cl)c1C(=O)N[C@@H]1C(=O)N2[C@@H]1SC(C)(C)[C@@H]2C(=O)O :: 112
CC[C@H]1OC(=O)[C@H](C)[C@@H](O[C@H]2C[C@@](C)(OC)[C@@H](O)[C@H](C)O2)[C@H](C)[C@@H](O[C@@H]2O[C@H](C)C[C@H](N(C)C)[C@H]2O)[C@](C)(O)C[C@@H](C)C(=O)[C@H](C)[C@@H](O)[C@]1(C)O :: 87.7
NS(=O)(=O)c1ccc(NC(=O)NC(c2ccccc2)c2ccccc2)cc1 :: 89
Clc1ccc(COC(Cn2ccnc2)c2ccc(Cl)cc2Cl)c(Cl)c1 (stereo not drawn) :: 17.4

Batch request: activity at 100 µM for each of the following compounds.
1. CCCCCOc1ccc(/C=C2\Oc3c(ccc(O)c3O)C2=O)c(O)c1
2. COc1ccc(C)cc1NC(=O)c1ccc(S(=O)(=O)N2CCCCC2)cc1
3. CC(C)(C)OC(=O)NCc1ccc(C(=O)N[C@H]2CCOC2=O)cc1
4. Fc1ccc(-n2cc(Cn3c(-c4cccc(F)c4)nc4ccccc43)nn2)cc1

Result:
1. 89
2. 67.5
3. 89.2
4. 126
